Biological target: T1, Centromere B (UniProt P07199)
T1 sequence (looked up): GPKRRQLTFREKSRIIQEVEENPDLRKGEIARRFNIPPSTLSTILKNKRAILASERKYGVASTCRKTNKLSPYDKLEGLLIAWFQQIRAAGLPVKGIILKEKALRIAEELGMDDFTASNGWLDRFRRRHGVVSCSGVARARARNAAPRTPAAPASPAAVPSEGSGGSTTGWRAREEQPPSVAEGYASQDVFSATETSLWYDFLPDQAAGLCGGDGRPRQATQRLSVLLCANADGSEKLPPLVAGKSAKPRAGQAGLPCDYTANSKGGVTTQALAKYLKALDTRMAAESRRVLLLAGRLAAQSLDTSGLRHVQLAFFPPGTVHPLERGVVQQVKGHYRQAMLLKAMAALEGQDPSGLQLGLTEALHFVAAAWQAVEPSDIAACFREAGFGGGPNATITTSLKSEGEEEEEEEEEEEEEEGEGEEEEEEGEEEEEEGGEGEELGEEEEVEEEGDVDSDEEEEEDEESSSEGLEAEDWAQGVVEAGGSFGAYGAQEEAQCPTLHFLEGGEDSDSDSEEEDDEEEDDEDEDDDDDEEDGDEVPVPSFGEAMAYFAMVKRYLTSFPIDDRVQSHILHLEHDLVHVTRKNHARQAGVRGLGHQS
Test: AtheNA, Ab 25 ug/ml
Short version: Athena reading (relative luminescence units) at least 20 is Condition met, less is Condition not met.

These recorded examples may help you get a feel for the data.
Binder	Category label
CH239_4A/293i (antibody, from a related filing, V domains shown) VH: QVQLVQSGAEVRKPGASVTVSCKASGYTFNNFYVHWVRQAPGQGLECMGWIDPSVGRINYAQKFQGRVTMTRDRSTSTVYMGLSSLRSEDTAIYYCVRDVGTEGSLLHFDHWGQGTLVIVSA VL: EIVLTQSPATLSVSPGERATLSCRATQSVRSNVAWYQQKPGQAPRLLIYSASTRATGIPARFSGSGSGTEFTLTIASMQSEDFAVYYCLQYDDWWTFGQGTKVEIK	Condition met
CH235_4A (antibody, from a related filing, V domains shown) VH: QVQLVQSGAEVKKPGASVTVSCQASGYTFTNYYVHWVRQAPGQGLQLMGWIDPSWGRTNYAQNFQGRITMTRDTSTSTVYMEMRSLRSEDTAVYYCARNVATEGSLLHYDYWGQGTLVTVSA VL: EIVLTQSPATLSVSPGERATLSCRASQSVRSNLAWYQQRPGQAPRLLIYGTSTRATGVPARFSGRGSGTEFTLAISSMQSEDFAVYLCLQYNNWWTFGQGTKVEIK	Condition not met
CH236_4A/293i (antibody, from a related filing, V domains shown) VH: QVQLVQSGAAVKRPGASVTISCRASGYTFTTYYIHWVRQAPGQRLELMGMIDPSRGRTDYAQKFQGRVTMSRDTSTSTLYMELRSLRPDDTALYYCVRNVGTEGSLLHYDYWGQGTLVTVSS VL: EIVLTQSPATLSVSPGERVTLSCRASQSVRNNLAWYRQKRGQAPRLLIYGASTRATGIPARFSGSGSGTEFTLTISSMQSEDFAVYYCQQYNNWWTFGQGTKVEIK	Condition met
CH241 (antibody, from a related filing, V domains shown) VH: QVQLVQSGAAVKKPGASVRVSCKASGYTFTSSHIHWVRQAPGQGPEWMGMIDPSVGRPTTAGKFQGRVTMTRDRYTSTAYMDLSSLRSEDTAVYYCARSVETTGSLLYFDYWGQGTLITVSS VL: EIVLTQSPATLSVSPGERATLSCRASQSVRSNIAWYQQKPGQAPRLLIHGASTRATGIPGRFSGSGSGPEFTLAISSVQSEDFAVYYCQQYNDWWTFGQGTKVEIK	Condition not met

Attention now shifts to the item below.
Would you say CH240_4A/293i (antibody, from a related filing, V domains shown) VH: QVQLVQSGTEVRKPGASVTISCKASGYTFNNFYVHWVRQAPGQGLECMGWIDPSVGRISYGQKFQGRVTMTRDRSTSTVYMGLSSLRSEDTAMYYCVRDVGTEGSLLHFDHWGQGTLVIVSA VL: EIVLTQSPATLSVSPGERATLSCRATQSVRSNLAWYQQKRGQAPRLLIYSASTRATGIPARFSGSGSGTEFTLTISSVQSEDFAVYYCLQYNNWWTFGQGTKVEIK shows Athena reading (relative luminescence units) at minimum 20?
Condition met
